# TARGET OF ASSAY: human Yes1 enzyme (Homo sapiens, UniProt P07947)
# Construct: made in house
# Sequence (P07947 whole entry): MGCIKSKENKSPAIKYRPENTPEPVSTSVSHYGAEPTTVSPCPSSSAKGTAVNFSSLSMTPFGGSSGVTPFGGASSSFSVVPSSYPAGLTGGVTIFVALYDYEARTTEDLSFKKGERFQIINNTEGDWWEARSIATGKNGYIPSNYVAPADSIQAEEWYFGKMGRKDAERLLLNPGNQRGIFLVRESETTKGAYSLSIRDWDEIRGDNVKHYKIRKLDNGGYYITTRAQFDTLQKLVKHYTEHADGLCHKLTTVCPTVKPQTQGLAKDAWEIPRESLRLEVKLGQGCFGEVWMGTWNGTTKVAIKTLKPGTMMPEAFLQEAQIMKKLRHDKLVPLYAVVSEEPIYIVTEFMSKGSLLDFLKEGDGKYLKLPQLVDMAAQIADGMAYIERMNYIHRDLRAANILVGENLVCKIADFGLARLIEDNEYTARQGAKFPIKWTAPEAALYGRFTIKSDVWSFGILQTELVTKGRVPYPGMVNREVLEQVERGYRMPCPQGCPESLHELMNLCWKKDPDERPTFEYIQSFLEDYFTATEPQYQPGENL
# ASSAY PROTOCOL: Yes1 enzyme inhibitory activity (time-resolved fluorometry, biotinylated peptide phosphorylation)
# Format: biochemical
# CONDITION CONTEXT: read-out: YES_IC50
pIC50: −log10 of the molar value.
READOUT LABEL: pIC50

Req: Look up pIC50 for this compound: Cc1cc(-n2ncc(C(=O)c3cc4cc(OC5CCN(C6CCC6)CC5)c(Br)cc4[nH]3)c2N)ccc1Oc1ccccc1F [Example 5-1-218]
Resp: 9.19

Req: Next compound up: Cc1cc(Oc2c(F)cccc2F)ncc1-n1ncc(C(=O)c2cc3cc(F)c(N4CCOCC4)cc3[nH]2)c1N [Example 5-1-100]
Resp: 8.80

Req: Next compound up: Cc1cc(-n2ncc(C(=O)c3cc4cc(OC5CCN(C6CC6)CC5)c(Br)cc4[nH]3)c2N)ccc1Oc1ccccc1F [Example 5-1-219]
Resp: 8.89

(A) Cc1cc(Oc2ccccc2F)ccc1-n1ncc(C(=O)c2cc3cc(OC4CCN(C(C)C)CC4)c(F)cc3[nH]2)c1N [Example 5-1-203]
(B) Cc1cc(-n2ncc(C(=O)c3cc4cc(OC(F)F)c(N5CCOC5=O)cc4[nH]3)c2N)ccc1Oc1ccccc1F [Example 5-1-177]
Req: Please let me know which one, A or B , has a lower measured pIC50 value. Your answer should be the label attached to the chosen record.
Resp: B

(a) Cc1cc(-n2ncc(C(=O)c3cc4cc(OCC(F)F)c(C5CCN(S(C)(=O)=O)CC5)cc4[nH]3)c2N)ccc1Oc1ccccc1F [Example 5-1-217]
(b) Cc1cc(-n2ncc(C(=O)c3cc4cc(OC5CCN(C(C)C)CC5)c(Br)cc4[nH]3)c2N)ccc1Oc1ccccc1F [Example 5-1-148]
(c) Cc1cc(Oc2ccccc2F)ncc1-n1ncc(C(=O)c2cc3cc(F)c(N4C(=O)NC(C)(C)C4=O)cc3[nH]2)c1N [Example 5-1-379]
Req: Put the compounds in ascending order of pIC50. Answer by listing the labels in the requested order.
Resp: c, a, b
(c: 8.35, a: 8.85, b: 9.24)

(I) Cc1cc(-n2ncc(C(=O)c3cc4cc(OCC(F)F)c(Br)cc4[nH]3)c2N)ccc1Oc1ccccc1F [Example 5-1-150]
(II) CCOc1cc2cc(C(=O)c3cnn(-c4ccc(Oc5ccccc5F)cc4C)c3N)[nH]c2cc1C1CCN(S(C)(=O)=O)CC1 [Example 5-1-073]
Req: Lab note: record which item had the higher pIC50, I or II . Your answer should be the label attached to the chosen record.
Resp: I
(I: 8.32, II: 8.01)

###

# TARGET OF ASSAY: human Src enzyme (Homo sapiens)
# Construct: purchased Carna Biosciences, Inc. 08-173
# Sequence (P12931 whole entry): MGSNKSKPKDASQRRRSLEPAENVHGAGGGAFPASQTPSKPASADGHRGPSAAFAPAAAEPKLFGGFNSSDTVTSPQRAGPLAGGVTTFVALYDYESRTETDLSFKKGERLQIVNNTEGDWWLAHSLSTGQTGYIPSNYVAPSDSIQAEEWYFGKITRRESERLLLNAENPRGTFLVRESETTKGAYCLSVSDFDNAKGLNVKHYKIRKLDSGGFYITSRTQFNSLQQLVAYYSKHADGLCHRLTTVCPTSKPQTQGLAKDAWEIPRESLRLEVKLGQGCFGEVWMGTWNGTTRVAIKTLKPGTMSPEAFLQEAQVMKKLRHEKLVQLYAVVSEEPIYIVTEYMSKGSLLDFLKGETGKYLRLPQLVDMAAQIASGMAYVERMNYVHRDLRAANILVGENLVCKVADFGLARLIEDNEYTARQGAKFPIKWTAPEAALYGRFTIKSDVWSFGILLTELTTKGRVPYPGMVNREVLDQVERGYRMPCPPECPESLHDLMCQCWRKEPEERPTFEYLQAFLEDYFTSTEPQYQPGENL
# ASSAY PROTOCOL: Src enzyme inhibitory activity (time-resolved fluorometry, biotinylated peptide phosphorylation)
# Format: biochemical
# CONDITION CONTEXT: biotinylated peptide phosphorylation, read-out: SRC_IC50
READOUT LABEL: IC50 (nM)

Req: Look up IC50 for this molecule: `Cc1cc(Oc2cc(F)ccc2F)cc(F)c1-n1ncc(C(=O)c2cc3cc(NS(C)(=O)=O)c(F)cc3[nH]2)c1N`
Resp: 50

Req: Next molecule up: `Cc1cc(Oc2ccccc2F)ccc1-n1ncc(C(=O)c2cc3cc(OCCN4C[C@@H]5C[C@H]4CN5S(C)(=O)=O)c(NS(C)(=O)=O)cc3[nH]2)c1N`
Resp: 6.9

Req: Next molecule up: `Cc1cc(Oc2ccccc2F)ncc1-n1ncc(C(=O)c2cc3cc(OC(F)F)c(NC4CN(S(C)(=O)=O)C4)cc3[nH]2)c1N`
Resp: 30

(a) Cc1cc(Oc2ccccc2F)ncc1-n1ncc(C(=O)c2cc3cc(OCC(F)F)c(NC4COC4)cc3[nH]2)c1N
(b) Cc1cc(Oc2ccccc2F)ccc1-n1ncc(C(=O)c2cc3cc(OC(F)F)c(N4CCOC4=O)cc3[nH]2)c1N
(c) Cc1cc(Oc2ccccc2)cc(F)c1-n1ncc(C(=O)c2cc3cc(F)c(NS(=O)(=O)C4CC4)cc3[nH]2)c1N
Req: Put the molecules in ascending order of IC50. Answer by listing the labels in the requested order.
Resp: b, a, c
(b: 8.7 nM, a: 30 nM, c: 130 nM)

###

# TARGET OF ASSAY: human Lck enzyme (Homo sapiens, UniProt P06239)
# Construct: purchased Carna Biosciences, Inc. 08-170
# Sequence (P06239 whole entry): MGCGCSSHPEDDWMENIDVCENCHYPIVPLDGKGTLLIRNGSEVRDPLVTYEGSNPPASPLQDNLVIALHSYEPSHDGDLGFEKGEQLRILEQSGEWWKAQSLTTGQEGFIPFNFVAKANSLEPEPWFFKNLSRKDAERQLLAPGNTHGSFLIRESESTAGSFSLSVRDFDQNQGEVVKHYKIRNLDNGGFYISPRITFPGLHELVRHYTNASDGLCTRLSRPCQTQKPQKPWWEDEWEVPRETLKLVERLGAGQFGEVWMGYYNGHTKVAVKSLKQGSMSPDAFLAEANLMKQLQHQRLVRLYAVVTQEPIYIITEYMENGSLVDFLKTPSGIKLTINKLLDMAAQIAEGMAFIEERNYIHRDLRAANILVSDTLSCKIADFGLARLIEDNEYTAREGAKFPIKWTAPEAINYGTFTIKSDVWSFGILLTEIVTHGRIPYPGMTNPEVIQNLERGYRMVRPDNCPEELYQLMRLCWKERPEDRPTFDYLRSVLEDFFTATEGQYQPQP
# ASSAY PROTOCOL: Lck enzyme inhibitory activity (time-resolved fluorometry, biotinylated peptide phosphorylation)
# Format: biochemical
# CONDITION CONTEXT: biotinylated peptide phosphorylation, read-out: LCK_IC50
pIC50: −log10 of the molar value.
READOUT LABEL: pIC50

Req: Give human Lck enzyme (Homo sapiens, UniProt P06239) pIC50 for COc1cc2cc(C(=O)c3cnn(-c4cnc(Oc5ccccc5F)cc4C)c3N)[nH]c2cc1NS(=O)(=O)CCCF [Example 4-13-001]
Resp: 7.59

(A) Cc1cc(Oc2ccccc2F)ccc1-n1ncc(C(=O)c2cc3cc(F)c(NS(=O)(=O)NC(C)(C)CO)cc3[nH]2)c1N [Example 4-6-003]
(B) Cc1cc2cc(C(=O)c3cnn(-c4cnc(Oc5ccccc5F)cc4C)c3N)[nH]c2cc1NS(=O)(=O)c1cccc(C(F)(F)F)c1 [Example 5-1-463]
(C) Cc1cc2cc(C(=O)c3cnn(-c4cnc(Oc5ccccc5F)cc4C)c3N)[nH]c2cc1NS(=O)(=O)c1cccc(C#N)c1 [Example 5-1-440]
Req: Order the items by recorded pIC50; the first position goes to the largest value. Answer by listing the labels in the requested order.
Resp: A, C, B

(A) Cc1cc(Oc2ccccc2F)cc(F)c1-n1ncc(C(=O)c2cc3cc(OC(F)F)c(N4CCCS4(=O)=O)cc3[nH]2)c1N [Example 4-25-003]
(B) COc1cc2cc(C(=O)c3cnn(-c4cnc(Oc5cccc(Cl)c5)cc4C)c3N)[nH]c2cc1NS(C)(=O)=O [Example 4-1-011]
Req: Lab note: record which item had the higher pIC50, A or B . Your answer should be the label attached to the chosen record.
Resp: A

(A) Cc1cc(Oc2cccc(F)c2F)cc(F)c1-n1ncc(C(=O)c2cc3cc(F)c(NS(=O)(=O)N4CCOCC4)cc3[nH]2)c1N [Example 4-5-011]
(B) Cc1cc(Oc2ccccc2F)ncc1-n1ncc(C(=O)c2cc3cc(OCC(F)F)c(N4CCOC4=O)cc3[nH]2)c1N [Example 4-25-016]
Req: Please let me know which one, A or B , has a lower measured pIC50 value. Your answer should be the label attached to the chosen record.
Resp: A

(1) Cc1cc(Oc2ccccc2Cl)ccc1-n1ncc(C(=O)c2cc3cc(F)c(C4CCN(C(C)C)CC4)cc3[nH]2)c1N [Example 4-2-012]
(2) Cc1cc(Oc2ccccc2F)ncc1-n1ncc(C(=O)c2cc3cc(N4CCOCC4)c(NS(=O)(=O)C4CC4)cc3[nH]2)c1N [Example 4-24-014]
Req: Lab note: record which item had the higher pIC50, 1 or 2 . Your answer should be the label attached to the chosen record.
Resp: 1

(P) Cc1cc2cc(C(=O)c3cnn(-c4cnc(Oc5c(F)cccc5F)cc4C)c3N)[nH]c2cc1NS(=O)(=O)c1cccc(C#N)n1 [Example 5-1-536]
(Q) Cc1cc(Oc2ccccc2F)ncc1-n1ncc(C(=O)c2cc3cc(NS(C)(=O)=O)c(Cl)cc3[nH]2)c1N [Example 4-2-096]
(R) Cc1cc(Oc2c(F)cccc2F)ncc1-n1ncc(C(=O)c2cc3cc(OCC(F)F)c(NS(C)(=O)=O)cc3[nH]2)c1N [Example 4-24-031]
(S) Cc1cc(Oc2ccccc2F)ccc1-n1ncc(C(=O)c2cc3cc(F)c(NS(=O)(=O)NC4CC4)cc3[nH]2)c1N [Example 4-5-010]
(T) Cc1cc(Oc2ccccc2F)ccc1-n1ncc(C(=O)c2cc3cc(OC(F)F)c(N4CCC(N5CCOCC5)CC4)cc3[nH]2)c1N [Example 4-25-032]
Req: Order the items by recorded pIC50; the first position goes to the largest value. Answer by listing the labels in the requested order.
Resp: Q, R, T, S, P
(Q: 8.59, R: 8.17, T: 7.96, S: 7.66, P: 7.04)

(I) Cc1cc(Oc2ccccc2F)ccc1-n1ncc(C(=O)c2cc3cc(F)c(N4CC5(CCOCC5)NS4(=O)=O)cc3[nH]2)c1N [Example 5-1-403]
(II) Cc1cc(Oc2ccccc2Cl)cc(F)c1-n1ncc(C(=O)c2cc3cc(NS(C)(=O)=O)c(F)cc3[nH]2)c1N [Example 4-2-102]
Req: Please let me know which one, I or II , has a lower measured pIC50 value. Your answer should be the label attached to the chosen record.
Resp: I
(I: 8.07, II: 8.41)

(a) Cc1cc(Oc2ccccc2F)ccc1-n1ncc(C(=O)c2cc3cc(F)c(NS(=O)(=O)CC(=O)N4CCCC4)cc3[nH]2)c1N [Example 4-26-001]
(b) Cc1cc(-n2ncc(C(=O)c3cc4cc(C)c(N5C(=O)NC6(CCOCC6)C5=O)cc4[nH]3)c2N)ccc1Oc1ccccc1F [Example 5-1-469]
Req: Lab note: record which item had the higher pIC50, a or b . Your answer should be the label attached to the chosen record.
Resp: a
(a: 8.12, b: 7.00)

(1) Cc1cc(Oc2ccccc2F)ccc1-n1ncc(C(=O)c2cc3cc(OCC(F)F)c(NC4COC4)cc3[nH]2)c1N [Example 4-23-016]
(2) COc1cc2[nH]c(C(=O)c3cnn(-c4cnc(Oc5ccccc5F)cc4C)c3N)cc2cc1NS(C)(=O)=O [Example 4-1-014]
Req: Lab note: record which item had the higher pIC50, 1 or 2 . Your answer should be the label attached to the chosen record.
Resp: 2

Hey, just so you know, these numbers are from patent US10479780B2.
